- measured.target: T1, recombinant human ErbB2/Fc chimera (human, UniProt P04626 23-652)
- T1 construct: bought from R&D Systems; also called rhErbB2-Fc; rhErb2-Fc; Fc part of the bought chimera not given; not described
- assay.remarks: SPR (Biacore 3000), periplasmic extract over immobilised rhErbB2-Fc
We begin with a simple list: items and their reported koff.
property.label: koff (s⁻¹)

binder	measurement.unit	reading
2A4 (VHH, C-term myc-His6 tag) VHH: EVQLVESGGGLVQPGGSLRLSCAASGFIFDDYAMSWVRQAPGKGLEWVSAINWSGSHRNYADSVKGRFTISRDNAKKTVYLQMNSLQSEDTAVYYCGTGWQSTTKNQGYWGQGTQVTVSS	s⁻¹	0.00205
2D5 (VHH, C-term myc-His6 tag) VHH: EVQLVESGGGLVQPGGSLRLSCVASGFSLDDYGMTWVRQAPGKGLEWVSSINWSGTHTDYADSVKGRFTISRDNAKNTLFLQMNSLRSEDTAVYYCNQGWKIVPTDRGGHGTQVTVSS	s⁻¹	0.0012
2F4 (VHH, C-term myc-His6 tag) VHH: EVQLVESGGGLVQPGGSLRLSCVASGFSLDDYGMTWVRQAPGKGLEWVSSINWSGTHTDYADSVKGRFTISRDNAKNTLFLQMNSLRSEDTAVYYCNQGWKIVPTDRRGHGTQVTVSS	s⁻¹	0.00107
2C2 (VHH, C-term myc-His6 tag) VHH: EVQLVESGGGLVQPGGSLRLSCVASGFSLDDYAMTWVRQAPGKGLEWVSSINWSGTHTDYADSVKGRFTISRDNARNTLFLQMNSLTPEDTAIYYCNQGWKILPTDRRGHGTQVTVSS	s⁻¹	0.00412
2F5 (VHH, C-term myc-His6 tag) VHH: EVQLVESGGSLVPPGGSLRLSCAASGFTFDDYAMSWVRQAPGKGLEWVSSINWSGTHTDYTDSVKGRFTISRNNANNTLYLQMNSLKSEDTAVYYCAKNWGDAGTTWFEKSGSAGQGTQVTVSS	s⁻¹	0.00157
2B4 (VHH, C-term myc-His6 tag) VHH: EVQLVESGGGLVQPGGSLRLSCVGSGFSLDDYAMTWVRQAPGKGLEWVSSINWSGTHTDYADSVKGRFTISRDNAKNTLFLQMNSLSPEDTAVYYCNQGWKIRPTIPMGHGTQVTVSS	s⁻¹	0.00277
2B1 (VHH, C-term myc-His6 tag) VHH: EVQLVESGGSLVQPGGSLRLSCAASGFTFDDYAMTWVRQAPGKGLEWVSSINWSGTHTDYTDSVKGRFTISRNNANNTLYLQMNSLKSDDTAVYYCAKNWGDAGTTWFEKSGSAGPGTQVTVSS	s⁻¹	0.00155
2C3 (VHH, C-term myc-His6 tag) VHH: EVQLVESGGGLVQPGGSLRLSCVASGFSLDDYGMTWVRQAPGKGLEWVSSINWSGTHTDYADSVKGRFTISRDNAKNTLFLQMNSLRSEDTAVYYCNQGWKIVPTDRTGHGTQVTVSS	s⁻¹	0.00111
